- measurement-description: Pharmacokinetic study in mice (i.v.)
- measurement-setup: terminal half-life, single intravenous dose of 20 mg/kg, lean C57bl mice
readout: Half-life mice (h)
Quick note: give the figure in h, leave out the unit.

| molecule | Half-life mice, h |
| --- | --- |
| S{Beta-180}-[2-[2-[[2-[2-[2-[[2-[2-[2-[[(4S)-4-carboxy-4-(15-carboxypentadecanoyl-amino)butanoyl]amino]ethoxy]ethoxy]acetyl]amino]ethoxy]ethoxy]acetyl]amino]-ethylamino]-2-oxoethyl]-Ala[Gln121,Leu168, … (protein) HPIPDSSPLLQFGGQVRQRYLYTDDAQQTEAHLEIREDGTVGGAADQSPESLLQLKALKPGVIQILGVKTSRFLCQRPDGALYGSLHFDPEACSFRELLLEDGYNVYQSEAHGLPLHLPGQKSPHRDPAPRGPARFLPLPGLPPALPEPPGILAPQPPDVGSSDPLSLVGPSQGRSPSYCS | 3 |
| S{Beta-181}-[2-[2-[[2-[2-[2-[[2-[2-[2-[[(4S)-4-carboxy-4-(11-carboxyundecanoyl-amino)butanoyl]amino]ethoxy]ethoxy]acetyl]amino]ethoxy]ethoxy]acetyl]amino]-ethylamino]-2-oxoethyl]-Ala[Gln121,Leu168,Cys … (protein) HPIPDSSPLLQFGGQVRQRYLYTDDAQQTEAHLEIREDGTVGGAADQSPESLLQLKALKPGVIQILGVKTSRFLCQRPDGALYGSLHFDPEACSFRELLLEDGYNVYQSEAHGLPLHLPGQKSPHRDPAPRGPARFLPLPGLPPALPEPPGILAPQPPDVGSSDPLSLVGPSQGRSPSYAC | 1 |
| S{Beta-180}-[2-[2-[[2-[2-[2-[[2-[2-[2-[[(4S)-4-carboxy-4-(11-carboxyundecanoyl-amino)butanoyl]amino]ethoxy]ethoxy]acetyl]amino]ethoxy]ethoxy]acetyl]amino]-ethylamino]-2-oxoethyl]-Ala[Gln121,Leu168,Cys … (protein) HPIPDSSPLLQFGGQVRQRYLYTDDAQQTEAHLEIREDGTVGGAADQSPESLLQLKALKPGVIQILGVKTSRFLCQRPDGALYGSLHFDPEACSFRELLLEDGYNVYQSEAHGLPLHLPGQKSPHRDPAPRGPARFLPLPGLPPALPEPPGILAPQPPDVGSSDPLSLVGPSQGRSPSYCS | 1 |
| S{Beta-181}-[2-[2-[[2-[2-[2-[[2-[2-[2-[[(4S)-4-carboxy-4-(19-carboxynonadecanoyl-amino)butanoyl]amino]ethoxy]ethoxy]acetyl]amino]ethoxy]ethoxy]acetyl]amino]-ethylamino]-2-oxoethyl]-Ala[Gln121,Leu168,C … (protein) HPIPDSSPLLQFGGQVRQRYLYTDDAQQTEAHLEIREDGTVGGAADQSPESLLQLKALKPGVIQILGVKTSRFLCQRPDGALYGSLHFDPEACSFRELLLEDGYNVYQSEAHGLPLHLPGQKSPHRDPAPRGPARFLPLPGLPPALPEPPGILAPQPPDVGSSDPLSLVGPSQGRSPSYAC | 19 |
| S{Beta-181}-[2-[2-[[2-[2-[2-[[2-[2-[2-[[(4S)-4-carboxy-4-(15-carboxypentadecanoyl-amino)butanoyl]amino]ethoxy]ethoxy]acetyl]amino]ethoxy]ethoxy]acetyl]amino]-ethylamino]-2-oxoethyl]-Ala[Gln121,Leu168, … (protein) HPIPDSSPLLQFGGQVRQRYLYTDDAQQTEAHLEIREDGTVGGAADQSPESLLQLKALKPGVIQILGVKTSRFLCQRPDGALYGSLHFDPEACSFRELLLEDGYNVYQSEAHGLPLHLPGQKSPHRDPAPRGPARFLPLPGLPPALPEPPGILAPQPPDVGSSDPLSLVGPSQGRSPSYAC | 4 |

// next item, Half-life mice requested
Q) Fill in: Half-life mice of S{Beta-180}-[2-[2-[[2-[2-[2-[[2-[2-[2-[[(4S)-4-carboxy-4-(13-carboxytridecanoyl-amino)butanoyl]amino]ethoxy]ethoxy]acetyl]amino]ethoxy]ethoxy]acetyl]amino]-ethylamino]-2-oxoethyl]-Ala[Gln121,Leu168,Cy … (protein) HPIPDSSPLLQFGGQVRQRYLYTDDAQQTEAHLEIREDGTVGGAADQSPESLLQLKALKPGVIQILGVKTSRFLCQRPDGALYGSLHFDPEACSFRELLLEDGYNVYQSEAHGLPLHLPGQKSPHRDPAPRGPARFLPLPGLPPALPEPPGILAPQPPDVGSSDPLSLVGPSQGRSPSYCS is ___
A) 1
